- target-entity: Muscarinic acetylcholine receptor M4 (Homo sapiens) (UniProt P08173)
- Sequence (P08173 whole entry, looked up): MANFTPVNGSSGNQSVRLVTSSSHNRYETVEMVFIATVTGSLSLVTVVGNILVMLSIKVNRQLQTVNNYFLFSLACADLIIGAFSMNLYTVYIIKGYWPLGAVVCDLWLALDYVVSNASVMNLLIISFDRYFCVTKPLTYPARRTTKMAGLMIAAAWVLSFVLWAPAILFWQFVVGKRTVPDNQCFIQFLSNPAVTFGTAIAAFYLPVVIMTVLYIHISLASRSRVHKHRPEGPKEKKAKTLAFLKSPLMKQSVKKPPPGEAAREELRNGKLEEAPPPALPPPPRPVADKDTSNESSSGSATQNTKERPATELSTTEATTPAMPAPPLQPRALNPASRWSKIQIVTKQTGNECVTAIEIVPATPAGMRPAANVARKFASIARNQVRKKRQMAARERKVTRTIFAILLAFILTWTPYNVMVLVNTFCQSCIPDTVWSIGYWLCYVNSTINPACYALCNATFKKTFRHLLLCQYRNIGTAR
- experiment-summary: M4-linked GIRK flux change, two-sided – cell-based, HEK293 M4/GIRK, thallium flux, BTC-AM, M4 allosteric agonist project, primary screen (AID 625);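 also: thallium influx through GIRK channels coupled to M4 in HEK293 cells with BTC-AM dye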
- conditions: at 10 µM, actives lie on both sides
# fluorescence slope per record follows
Give the value as a plain number.

input: I would be grateful if you could share the reported fluorescence slope for CCOc1cccc(C(=O)Nc2cccc(-c3nc4ncccc4o3)c2C)c1 .
output: 0.00572

Continuing:
input: I would be grateful if you could share the reported fluorescence slope for CCCn1c2ccccc2c2nnc(SCC(=O)OCC)nc21 .
output: 0.00386

input: I would be grateful if you could share the reported fluorescence slope for CS(=O)(=O)N1CCN(CC2CC3C=CC2C3)CC1 (stereo unspecified) .
output: 0.00684

input: I would be grateful if you could share the reported fluorescence slope for COC(=O)c1c(C(=O)OC)n(CCCN)c2ccc(C)cc12 .
output: 0.00606

input: I would be grateful if you could share the reported fluorescence slope for CCCCOc1ccc(-c2nnn(CC(=O)Nc3ncc(CC(=O)OCC)s3)n2)cc1 .
output: 0.00855

input: I would be grateful if you could share the reported fluorescence slope for CCC(=O)Nc1ccc(F)c(Cl)c1 .
output: 0.0059

input: I would be grateful if you could share the reported fluorescence slope for O=C(Nc1ccc(CN2CCCCC2)cc1)c1ccc2c(c1)OCO2 .
output: 0.00547

input: I would be grateful if you could share the reported fluorescence slope for CCn1c(CCNC(=O)c2ccc(OC)c(OC)c2)nc2ccccc21 .
output: 0.00543

input: I would be grateful if you could share the reported fluorescence slope for Cc1noc(C)c1S(=O)(=O)NCCN1CCN(c2ccccc2)CC1 .
output: 0.0066

input: I would be grateful if you could share the reported fluorescence slope for COc1ccc(N2C(=O)CC(N3CCN(S(=O)(=O)c4c(F)cccc4F)CC3)C2=O)cc1OC (stereo unspecified) .
output: 0.00422

input: I would be grateful if you could share the reported fluorescence slope for C/C(=N\O)c1ccc2c3c([nH]c2c1)CCCC3 .
output: 0.006

---

- experiment-summary: TLR3 IRF3 reporter activation blockers – cell-based, poly I:C stimulus, luciferase, 10K MLSCN set, primary screen (AID 602277)
- conditions: HEK293-TLR3 RL24 IRF3 luciferase reporter, at 10 µM, stronger effect = higher value
# inhibition per record follows
Report only the number, with the unit % understood.

Examples from the recorded data:
input: I would be grateful if you could share the reported inhibition for COc1ccccc1S(=O)(=O)n1cc(Cc2ccccc2)c(N)n1 .
output: 31.1

input: I would be grateful if you could share the reported inhibition for Cc1cc(-c2ccccc2)nc2cc(C(N)=O)nn12 .
output: 13.7

input: I would be grateful if you could share the reported inhibition for Cc1ncc([N+](=O)[O-])n1CCO .
output: 25.4

input: I would be grateful if you could share the reported inhibition for Nc1nc(C(=O)N2CCOCC2)nn1S(=O)(=O)c1ccc(Cl)cc1 .
output: 15.9

input: I would be grateful if you could share the reported inhibition for C=C(c1ccc(O)cc1)c1ccc(O)cc1 .
output: 16.6

input: I would be grateful if you could share the reported inhibition for O=C(O)CCC(=O)Nc1nc(-c2ccccc2)cs1 .
output: 23.8

Continuing:
input: I would be grateful if you could share the reported inhibition for CC1(C)Cc2c(sc3ncnc(N)c23)CO1 .
output: 16.7

input: I would be grateful if you could share the reported inhibition for N#CC1=C(N)N(c2ccccc2)C2=C(C(=O)CCC2)C1c1cccs1 (configuration not stated) .
output: -9.24

input: I would be grateful if you could share the reported inhibition for Cc1ccc(S(=O)(=O)n2nc(OC(=O)c3ccco3)cc2N)cc1 .
output: -6.95

input: I would be grateful if you could share the reported inhibition for CCOc1ccc(NC(=O)CN(C)S(=O)(=O)c2cccs2)cc1 .
output: -62.8

input: I would be grateful if you could share the reported inhibition for CN(CC(=O)Nc1ccncc1)S(=O)(=O)c1ccccc1 .
output: 2.23

input: I would be grateful if you could share the reported inhibition for CCCn1c(NC(=O)C2COc3ccccc3O2)nc2ccccc21 (configuration not stated) .
output: 17.5
